Target: human CYP1A2 (Homo sapiens)
Sequence (P05177 whole entry): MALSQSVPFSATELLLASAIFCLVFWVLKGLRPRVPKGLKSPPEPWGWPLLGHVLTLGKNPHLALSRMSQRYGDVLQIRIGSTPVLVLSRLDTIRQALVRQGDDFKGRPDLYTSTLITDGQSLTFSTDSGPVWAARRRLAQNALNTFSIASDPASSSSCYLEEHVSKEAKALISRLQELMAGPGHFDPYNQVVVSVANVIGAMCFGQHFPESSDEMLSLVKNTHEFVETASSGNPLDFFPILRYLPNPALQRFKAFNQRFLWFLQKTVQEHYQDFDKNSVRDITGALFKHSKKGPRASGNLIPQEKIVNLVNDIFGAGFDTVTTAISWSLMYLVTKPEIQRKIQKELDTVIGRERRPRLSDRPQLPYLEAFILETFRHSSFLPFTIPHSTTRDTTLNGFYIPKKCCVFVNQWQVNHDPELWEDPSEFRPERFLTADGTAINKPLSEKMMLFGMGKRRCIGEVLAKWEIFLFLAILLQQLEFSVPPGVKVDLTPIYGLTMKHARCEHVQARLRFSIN
Experiment: biochemical
Details: CYP1A2 AC50 (half-maximal activity concentration)
In this section we review reported log10 of AC50 values for a set of compounds.
Record value = log10 of AC50 given in µM.

Please review the entries below; each comes with its answer.
CSc1nc(NC(C)C)nc(NC(C)C)n1
1.24
CCCCCC1C(=O)CCC1CC(=O)OC (stereo not shown) [Methyl dihydrojasmonate]
1.43
COP(=O)(OC)OC(=CCl)c1cc(Cl)c(Cl)cc1Cl
0.48
Nc1ccc(S(=O)(=O)Nc2nccs2)cc1
1.52
C#CC(C)N(C)C(=O)Nc1ccc(Cl)cc1 (stereo not shown)
0.74
CCC(C)c1cc([N+](=O)[O-])cc([N+](=O)[O-])c1O (stereo not shown)
1.76
CCCCCC(C=O)=Cc1ccccc1
1.46
CCCCCCCC(=O)Oc1c(Br)cc(C#N)cc1Br [Bromoxynil octanoate]
1.18

Inquiry: What does the record list as log10 of AC50 for Oc1cc(Cl)c(Cl)c(Cl)c1 ?
Reply text: 1.42

Inquiry: What does the record list as log10 of AC50 for O=[N+]([O-])c1cc(C(F)(F)F)cc([N+](=O)[O-])c1Cl ?
Reply text: 1.81

====

Biological target: CYP3A4 (Homo sapiens)
Sequence (P08684 whole entry): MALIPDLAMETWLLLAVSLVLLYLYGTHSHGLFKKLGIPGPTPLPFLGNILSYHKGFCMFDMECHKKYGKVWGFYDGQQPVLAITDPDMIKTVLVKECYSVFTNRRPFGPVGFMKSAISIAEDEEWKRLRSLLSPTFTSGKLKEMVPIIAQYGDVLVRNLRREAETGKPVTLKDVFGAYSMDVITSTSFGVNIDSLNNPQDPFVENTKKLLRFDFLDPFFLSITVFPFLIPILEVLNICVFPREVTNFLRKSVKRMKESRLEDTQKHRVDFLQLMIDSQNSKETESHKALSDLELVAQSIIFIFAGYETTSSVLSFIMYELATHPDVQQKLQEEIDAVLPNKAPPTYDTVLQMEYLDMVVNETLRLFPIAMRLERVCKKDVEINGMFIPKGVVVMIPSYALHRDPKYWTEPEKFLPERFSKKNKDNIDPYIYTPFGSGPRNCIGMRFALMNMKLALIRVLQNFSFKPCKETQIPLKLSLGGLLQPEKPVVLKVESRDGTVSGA
Assay: biochemical
Counter-ions that a name gives are not always drawn.
In this section we review reported log10 IC50 values for a set of molecules.
Record value = log10 of IC50 given in µM.

CC(C(O)c1ccccc1)N(C)CCOC(c1ccccc1)c1ccccc1 (stereo not drawn)
-0.21
COC(=O)C1=C(C)NC(C)=C(C(=O)OCCc2ccc(N3CCN(C(c4ccccc4)c4ccccc4)CC3)cc2)C1c1cccc([N+](=O)[O-])c1 (stereo not drawn)
0.38
COc1ccc(S(=O)(=O)N2C(=O)[C@@](c3ccccc3OC)(N3C[C@H](O)C[C@H]3C(=O)N(C)C)c3cc(Cl)ccc32)c(OC)c1
-1.15
COc1cc(N)c(Cl)cc1C(=O)NC1CCN(Cc2ccccc2)CC1 [Clebopride maleate]
0.31
c1ccc(CCCc2ccncc2)cc1
-0.37

Inquiry: What does the record list as log10 IC50 for CCCCC(CC)CN1C(=O)C2C3C=CC(C3)C2C1=O (stereo not drawn) ?
Reply text: -0.07

====

Biological target: human CYP2C19 (Homo sapiens, UniProt P33261)
Sequence (P33261 whole entry): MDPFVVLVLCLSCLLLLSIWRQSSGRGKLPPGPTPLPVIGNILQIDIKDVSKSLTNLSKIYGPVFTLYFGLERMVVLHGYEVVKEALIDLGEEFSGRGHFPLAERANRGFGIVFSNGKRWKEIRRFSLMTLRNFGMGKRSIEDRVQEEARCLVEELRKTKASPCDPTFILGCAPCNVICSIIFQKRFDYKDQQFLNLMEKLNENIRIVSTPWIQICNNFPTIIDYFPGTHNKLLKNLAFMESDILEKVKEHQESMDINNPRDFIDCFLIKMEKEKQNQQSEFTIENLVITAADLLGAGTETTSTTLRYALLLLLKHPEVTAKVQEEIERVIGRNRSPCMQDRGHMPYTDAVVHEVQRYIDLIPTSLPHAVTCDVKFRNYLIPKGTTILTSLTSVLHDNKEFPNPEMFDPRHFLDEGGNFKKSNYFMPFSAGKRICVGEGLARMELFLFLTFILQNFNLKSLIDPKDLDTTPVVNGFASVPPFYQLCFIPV
Test: biochemical
Where a name gives a salt, the structure may show the parent alone.
MEASURE_NAME: IC50 (µM)
Answer format: numeric, µM implied, no suffix.

COC(=O)C1=C(C)NC(C)=C(C(=O)OCCc2ccc(N3CCN(C(c4ccccc4)c4ccccc4)CC3)cc2)C1c1cccc([N+](=O)[O-])c1 (stereo not shown) [Watanidipine]
8.39
CSC(=O)c1cccc2nnsc12 [Acibenzolar-S-methyl]
13.2
COc1ccnc2c1CCCCC2[S+]([O-])c1nc2ccccc2[nH]1 (stereo not shown) [Nepaprazole]
8.96
Nc1ccc(C(=O)N2CC3CC(CN(Cc4ccccc4)C3)C2)cc1 [Ambasilide]
30

Inquiry: What does the record list as IC50 for CCCCc1cc2ccccc2c(OCCN(C)C)n1 [Dimethisoquin hydrochloride] ?
Reply text: 39.2

Inquiry: What does the record list as IC50 for O=C(Nc1ccc(S(=O)(=O)N2CCOCC2)cc1)c1cc(Cl)ccc1NS(=O)(=O)c1ccc(Cl)s1 [Ataciguat] ?
Reply text: 41.3

Inquiry: What does the record list as IC50 for CCC1(c2cnc[nH]2)Cc2ccccc2C1 [Atipamezole] ?
Reply text: 1.42

Inquiry: What does the record list as IC50 for CN1CCC(N(Cc2ccccc2)c2ccccc2)CC1 [Bamipine] ?
Reply text: 36.8

Inquiry: What does the record list as IC50 for CCCCC(CC)CN1C(=O)C2C3C=CC(C3)C2C1=O (stereo not shown) [MGK-264] ?
Reply text: 4.9

====

In this section we review reported IC50 values for a set of molecules.
Molecular target: human CYP2D6 (Homo sapiens, UniProt P10635)
Sequence (P10635 whole entry): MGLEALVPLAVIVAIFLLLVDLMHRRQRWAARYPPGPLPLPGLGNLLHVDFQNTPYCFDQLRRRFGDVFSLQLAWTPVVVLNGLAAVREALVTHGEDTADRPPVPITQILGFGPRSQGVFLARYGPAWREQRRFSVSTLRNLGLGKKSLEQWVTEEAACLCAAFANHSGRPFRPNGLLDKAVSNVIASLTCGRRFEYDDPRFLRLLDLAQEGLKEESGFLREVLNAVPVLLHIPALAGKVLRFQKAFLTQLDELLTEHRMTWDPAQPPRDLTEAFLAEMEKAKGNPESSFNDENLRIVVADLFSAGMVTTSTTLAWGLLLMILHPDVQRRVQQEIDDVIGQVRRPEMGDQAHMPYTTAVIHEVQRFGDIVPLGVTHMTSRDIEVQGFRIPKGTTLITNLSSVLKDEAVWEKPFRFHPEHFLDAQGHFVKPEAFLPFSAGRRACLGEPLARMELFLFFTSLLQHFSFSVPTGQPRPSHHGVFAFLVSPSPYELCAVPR
Assay: biochemical
Details: CYP2D6 IC50 (half-maximal inhibitory concentration)
Structures can show the parent of a compound that is named as a salt.
Answer format: numeric, µM implied, no suffix.

C[C@]12Cc3c[nH]nc3C[C@@H]1CC[C@@H]1[C@@H]2CC[C@@]2(C)[C@H]1CC[C@]2(C)O
10.8
O[C@@H](COc1cccc2ncccc12)CN1CCN([C@@H]2c3ccccc3[C@@H]3[C@H](c4ccccc42)C3(F)F)CC1 [Zosuquidar trihydrochloride]
15.2
N#Cc1c(Cl)c(Cl)c(Cl)c(C#N)c1Cl
34.9

Inquiry: What does the record list as IC50 for COP(=S)(OC)Oc1ccc([N+](=O)[O-])c(C)c1 ?
Reply text: 35

Inquiry: What does the record list as IC50 for OC(c1ccc(Cl)cc1)(c1cncnc1)c1ccccc1Cl (stereo not shown) ?
Reply text: 35.6

Inquiry: What does the record list as IC50 for CN(C)c1ccc(Cc2ccc(N(C)C)cc2)cc1 ?
Reply text: 40.1

Inquiry: What does the record list as IC50 for CCOc1ccccc1OCCN[C@H](C)Cc1ccc(OC)c(S(N)(=O)=O)c1 [Tamsulosin hydrochloride] ?
Reply text: 12.8

====

Parameter CYP2C19 AC50 (half-maximal activity concentration), tested on human CYP2C19 (Homo sapiens, UniProt P33261), listed per item.

Please review the entries below; each comes with its answer.
N#Cc1cc(Br)c(O)c(Br)c1
Inactive
CN(C(=O)C(Cl)Cl)c1ccc(OC(=O)c2ccco2)cc1 [Diloxanide furoate]
Inconclusive inhibitor
Cl.Nc1c2c(nc3c1CCC3)CCCC2.O [Ipidacrine hydrochloride hydrate]
Inactive
O=C(O)c1cc(Cl)cc(Cl)c1
Inconclusive inhibitor
CC=CC(=O)N(CC)c1ccccc1C (mixture of isomers)
Inconclusive inhibitor

Inquiry: What does the record list as CYP2C19 AC50 (half-maximal activity concentration) for O=C1NC(=O)c2cccc3cccc1c23 [1H-Benzo[de]isoquinoline-1,3(2H)-dione] ?
Reply text: Inconclusive inhibitor

Inquiry: What does the record list as CYP2C19 AC50 (half-maximal activity concentration) for CCCCCCCCc1ccc(S(=O)(=O)[O-])cc1.[Na+] [Sodium 4-octylbenzenesulfonate] ?
Reply text: Inactive

Inquiry: What does the record list as CYP2C19 AC50 (half-maximal activity concentration) for O=C(CCOCCOCCOCCOCCC(=O)Nc1c(I)cc(I)c(C(=O)O)c1I)Nc1c(I)cc(I)c(C(=O)O)c1I ?
Reply text: Inactive

Inquiry: What does the record list as CYP2C19 AC50 (half-maximal activity concentration) for CC(=O)[O-].CC(=O)[O-].CC(=O)[O-].[Cr+3] [Chromium(III) acetate] ?
Reply text: Inactive

Inquiry: What does the record list as CYP2C19 AC50 (half-maximal activity concentration) for CN1CCC(Nc2ncc3ncnc(Nc4ccc(F)c(Cl)c4)c3n2)CC1.Cl.Cl [Falnidamol dihydrochloride] ?
Reply text: Inactive

====

Parameter CYP1A2 AC50 (half-maximal activity concentration), tested on human CYP1A2 (Homo sapiens), listed per item.

CN1CCC(Nc2ncc3ncnc(Nc4ccc(F)c(Cl)c4)c3n2)CC1.Cl.Cl [Falnidamol dihydrochloride]
Inactive
Cl.Nc1c2c(nc3c1CCC3)CCCC2.O [Ipidacrine hydrochloride hydrate]
Inconclusive inhibitor
NS(=O)(=O)c1ccc(Cl)c(S(N)(=O)=O)c1 [Clofenamide]
Inactive
Cc1cc(C)nc(NS(=O)(=O)c2ccc(N)cc2)n1 [Sulfamethazine]
Inconclusive inhibitor
CC(=O)OCC(=O)[C@H]1CC[C@H]2[C@@H]3CCC4=CC(=O)CC[C@]4(C)[C@H]3CC[C@]12C [Deoxycorticosterone acetate]
Inactive
O=C(O)c1ccccc1C(c1ccc(O)cc1)c1ccc(O)cc1 [Phenolphthalin]
Inconclusive inhibitor
CC1(C)[C@@H](O[C@H]2O[C@H](C(=O)O)[C@@H](O)[C@H](O)[C@H]2O[C@@H]2O[C@H](C(=O)O)[C@@H](O)[C@H](O)[C@H]2O)CC[C@]2(C)[C@H]3C(=O)C=C4[C@@H]5C[C@@](C)(C(=O)O)CC[C@]5(C)CC[C@@]4(C)[C@]3(C)CC[C@@H]12.N.O.O.O [Ammonium glycyrrhizinate trihydrate]
Inconclusive inhibitor
Clc1ccccc1-c1ccccc1Cl [2,2'-Dichlorobiphenyl]
Inconclusive inhibitor
C[As+](C)(C)CC(=O)[O-] [Arsenobetaine]
Inactive
O=S(=O)(O)c1cc(Cl)c(Cl)cc1Cl [2,4,5-Trichlorobenzenesulfonic acid]
Inconclusive inhibitor

Inquiry: Report CYP1A2 AC50 (half-maximal activity concentration) for O=C(O)c1ccc(OCCCOc2ccc(C(=O)O)cc2)cc1 [1,3-Bis(4-carboxyphenoxy)propane] tested on human CYP1A2 (Homo sapiens).
Reply text: Inactive

Inquiry: Report CYP1A2 AC50 (half-maximal activity concentration) for CC(=O)O[C@]1(C(C)=O)CC[C@H]2[C@@H]3C=C(Cl)C4=CC(=O)CC[C@]4(C)[C@H]3CC[C@@]21C [Chlormadinone acetate] tested on human CYP1A2 (Homo sapiens).
Reply text: Inactive

Inquiry: Report CYP1A2 AC50 (half-maximal activity concentration) for C[C@]12CC[C@@H]3c4ccc(OC(=O)N(CCCl)CCCl)cc4CC[C@H]3[C@@H]1CC[C@@H]2O [Estramustine] tested on human CYP1A2 (Homo sapiens).
Reply text: Inactive

Inquiry: Report CYP1A2 AC50 (half-maximal activity concentration) for O=C(CCCN1CCC(O)(c2ccc(Br)cc2)CC1)c1ccc(F)cc1 [Bromperidol] tested on human CYP1A2 (Homo sapiens).
Reply text: Inactive

Inquiry: Report CYP1A2 AC50 (half-maximal activity concentration) for O=C1OC(=O)c2c(Cl)c(Cl)c(Cl)c(Cl)c21 [Tetrachlorophthalic anhydride] tested on human CYP1A2 (Homo sapiens).
Reply text: Inactive

Inquiry: Report CYP1A2 AC50 (half-maximal activity concentration) for CCC(=O)Oc1ccc2c(c1)CC[C@@H]1[C@@H]2CC[C@@]2(C)[C@H]1C[C@@H](OC(=O)CC)[C@@H]2OC(=O)CC [Estriol tripropionate] tested on human CYP1A2 (Homo sapiens).
Reply text: Inconclusive inhibitor

Taken from paper PMC12155096.
